- System: SK-MEL-28 melanoma
- assay_info: NCI tumour cell line growth inhibition, 48 h
Where a SMILES comes first, the peptide text is derived from it.
quantity_name: TGI

response.value for O=C(O)C(CO)N=Cc1nc(-c2ccccc2)oc1O (configuration not stated) (field: TGI) = > 100 µM

response.value for Fc1ccc(-c2ncn(C3CCNCC3)c2-c2ccnc(Oc3cccc(C(F)(F)F)c3)n2)cc1 (field: TGI) = 6.93 µM

response.value for CC(C)(C)OC(=O)N(CCCN)CCCCN (field: TGI) = > 100 µM

response.value for CS(=O)(=O)Nc1ccc2c(c1)N(S(C)(=O)=O)CC2COS(C)(=O)=O (configuration not stated) (field: TGI) = > 100 µM

response.value for CCC(C)CN=C(N)c1ccc(N2CCN(c3ccc(C(N)=NCC(C)CC)cc3)CC2)cc1 (configuration not stated) (field: TGI) = 41.8 µM

response.value for CCOC(=O)C1=C(C)N2CCOC2(C)C(C(=O)OC)C1c1cccc(Cl)c1 (configuration not stated) (field: TGI) = > 100 µM

response.value for CCN(CC)C(=S)SS(=O)(=O)c1ccc(N)cc1 (field: TGI) = > 100 µM

response.value for c1ccc2c(c1)N[C@@H]1c3[nH]c4ccccc4c3CC[C@H]21 (field: TGI) = 35.3 µM

response.value for CC1(CO)OC(n2cnc3c(N)ncnc32)C(O)C1O (configuration not stated) (field: TGI) = > 100 µM

response.value for N#CNC(=NCc1ccccc1)NCc1ccccc1 (field: TGI) = > 100 µM

response.value for COc1cc2c(cc1OCCCC(=O)Nc1cc(C(=O)Nc3cc(C(=O)Nc4cc(C(=O)NCCCN(C)C)n(C)n4)n(C)c3)n(C)c1)N=CC1CCCN1C2=O (configuration not stated) (field: TGI) = 33.9 µM

response.value for CC(=O)OCc1cc(=O)n2c([nH]c3ccccc32)c1C#N (field: TGI) = > 100 µM

response.value for COCCOc1nc(-c2ccccc2)nc2ccccc12 (field: TGI) = > 100 µM

response.value for CC(C)C(=O)NCC[C@@H](CNC(=O)OC(C)(C)C)NC(=O)OC(C)(C)C (field: TGI) = > 100 µM

response.value for COc1ccc2c(c1)C(=O)C1(C2)[C@H](c2ccccc2)C2C(=O)c3cc(OC)ccc3C2[C@H]1c1ccccc1 (some centres not stated) (field: TGI) = > 100 µM

response.value for N#CC(NCCc1ccccc1)c1ccc(C(C#N)NCCc2ccccc2)cc1 (configuration not stated) (field: TGI) = > 100 µM

response.value for Cc1cccc(-n2cnc3cc(C(=O)N4CCCCC4)ccc32)c1 (field: TGI) = > 100 µM

response.value for CN(C)N=Nc1cn[nH]c1C(N)=O (field: TGI) = > 100 µM

response.value for COC(=O)C(C)NP(=O)(OCc1ccc(Cn2cnc3c(N)ncnc32)cc1)Oc1ccccc1 (configuration not stated) (field: TGI) = > 84.9 µM

response.value for CN(C)[C@@H]1C(=O)C(C(=O)NCN2CCN(C(=N)N=C(N)N)CC2)=C(O)[C@@]2(O)C(=O)C3=C(O)c4c(O)cccc4[C@@](C)(O)[C@H]3C[C@@H]12 (field: TGI) = 0.541 µM

response.value for C[C@]12CCC(=O)C(O)=C1CCC2=O (field: TGI) = > 100 µM

response.value for CCCCS/C(=C(/C#N)C(N)=O)c1cc2c([nH]1)CCCC2 (field: TGI) = 28.2 µM

response.value for O=C1NC(=NCc2c(Cl)cccc2Cl)S/C1=C\c1ccc2ncccc2c1 (field: TGI) = > 25 µM

response.value for C=C(C)[C@@H]1CC[C@]2(C(N)=O)CC[C@]3(C)[C@H](CC[C@@H]4[C@@]5(C)C/C(=C/c6cccnc6)C(=O)C(C)(C)[C@@H]5CC[C@]43C)[C@@H]12 (field: TGI) = 33.2 µM

response.value for CC1(O)C(C)(O)C(C)(O)C1(C)O (configuration not stated) (field: TGI) = > 100 µM

response.value for Cn1cc(-c2csc(-c3c[nH]c4ccccc34)n2)c2cccnc21 (field: TGI) = > 100 µM

response.value for CCC(C)C1NC(=O)C(CCCCN)NC(=O)C(CCCCN)NC(=O)C(CC(C)C)NC(=O)C(CCCCN)NC(=O)C(C(C)CC)NC(=O)C(C(C)C)NC(=O)C(C(C)CC)NC(=O)C(CCCCN)NC(=O)C(CCCCN)NC(=O)C(C)NC(=O)C(CCCCN)NC(=O)C(CC(C)C)NC1=O (configuration not stated) (cyclo(AKKIVIKLKKILK); configuration not given here) (field: TGI) = 4.61 µM

response.value for CN1C(=O)N(C)C2(O)c3ccccc3C(=O)C12O (configuration not stated) (field: TGI) = > 100 µM

response.value for COc1ccc(-c2onc(-c3ccc([N+](=O)[O-])cc3)c2C2=NCCCN2)cc1 (field: TGI) = > 100 µM

response.value for S=C1Nc2cnc3ccccc3c2SC1c1ccccc1 (configuration not stated) (field: TGI) = > 100 µM

response.value for COC(=O)c1ccc(C2SC(C)C(=O)N2NC(=O)C(O)c2ccccc2)cc1 (configuration not stated) (field: TGI) = > 100 µM

response.value for COc1cc2c(cc1OCCCCCN1CCN(CCCCCOc3cc4c(cc3OC)C(=O)C3CCC[C@H]3C=N4)CC1)N=C[C@@H]1CCCC1C2=O (some centres not stated) (field: TGI) = > 100 µM

response.value for O=C(Nc1cccc([N+](=O)[O-])c1)/C(=N\NC(=O)c1ccncc1)c1nc2ccc([N+](=O)[O-])cc2[nH]c1=O (field: TGI) = > 100 µM

response.value for CC(C)OP(=O)(OC(C)C)/C(F)=N/Nc1ccc([N+](=O)[O-])cc1 (field: TGI) = > 100 µM

response.value for CCC(C)C1NC(=O)C(NC(=O)C(CC(C)C)N(C)C(=O)[C@@H]2C=CCN2C(=O)[C@H](C)O)C(C)OC(=O)[C@H](Cc2ccc(OC)cc2)N(C)C(=O)[C@@H]2CCCN2C(=O)[C@H](CC(C)C)NC(=O)C(C)C(=O)[C@H](C(C)C)OC(=O)CC1O (some centres not stated) (field: TGI) = 0.00567 µM

response.value for c1cncc(CNCCN2CCNCC2)c1 (field: TGI) = > 100 µM

response.value for CC(C)NC1(C(N)=O)CCN(Cc2ccccc2)CC1 (field: TGI) = > 100 µM

----------
- Test system: A498 renal
- assay_info: NCI tumour cell line growth inhibition, 48 h
quantity_name: TGI

response.value for COc1ccc(CCc2nc3cc(-c4c(C)noc4C)ccc3n2CCN2CCOCC2)cc1 (field: TGI) = 32.8 µM

response.value for CCCCCCC(O)(c1ccc(F)cc1)C(CN1CCOCC1)c1ccccc1 (stereo not given) (field: TGI) = 30 µM

response.value for Nc1nc2c3c(ncn3CC(O)CO2)n1 (stereo not given) (field: TGI) = > 100 µM

response.value for COc1ccc(C2NC(=O)c3cc4c(cc3N2)OCO4)cc1 (stereo not given) (field: TGI) = 2.95 µM

response.value for C#CCNCCCN1C(=O)c2ccc3c4c(ccc(c24)C1=O)C(=O)N(CCCNCC#C)C3=O (field: TGI) = 1.41 µM

response.value for COc1ccc(/C=C2\C(=O)NC(=O)c3ccccc32)cc1OC (field: TGI) = > 100 µM

response.value for CNC(=O)c1ccc(C(=O)NCCCCCN(O)C(=O)CCC(=O)NCCCCCN(O)C(=O)CCC(=O)NCCCCCN(O)C(C)=O)c(O)c1O (field: TGI) = > 100 µM

response.value for Cc1c(C)n(COCCO)c2ncnc(N)c12 (field: TGI) = > 100 µM

response.value for O=S(=O)(Nc1nc2ccccc2n1S(=O)(=O)c1ccccc1)c1ccccc1 (field: TGI) = > 100 µM

response.value for O=C1C2=C(C(c3ccccc3)=C1c1ccccc1)c1ccccc1C1(c3ccccc3)C2=C(O)C(c2ccccc2)=C1c1ccccc1 (stereo not given) (field: TGI) = > 100 µM

----------
Record form. Attribute: GI50. Fill in for each entry.
- System: SF-268 CNS
- assay_info: NCI tumour cell line growth inhibition, 48 h

response.value for CC(C)(C(=O)NCC(F)(F)C(F)(F)F)C(=O)N[C@@H]1C(=O)Nc2ccccc2-c2ccccc21 (field: GI50) = 67.5 µM

response.value for C#CC#CC#CC#CC#CC#CC#CC#CC[C@@H]1OC[C@H](COC(=O)O[C@@H](C(=O)O[C@H]2C[C@@]3(O)[C@@H](OC(=O)c4ccccc4)[C@@H]4[C@]5(OC(C)=O)CO[C@@H]5C[C@H](O)[C@@]4(C)C(=O)[C@H](OC(C)=O)C(=C2C)C3(C)C)[C@@H](NC(=O)c2ccccc2)c2ccccc2)O1 (field: GI50) = 1.93 µM

response.value for O=c1cc(/C=C/c2ccc(O)c(O)c2)cc(/C=C/c2ccc(O)c(O)c2)o1 (field: GI50) = 4.17 µM
